Where do these numbers come from? They come from BindingDB's records for doi:10.7270/Q2TX3CTT.

# systemName: Glycogen synthase kinase-3 beta (Homo sapiens)
# Sequence (P49841 whole entry): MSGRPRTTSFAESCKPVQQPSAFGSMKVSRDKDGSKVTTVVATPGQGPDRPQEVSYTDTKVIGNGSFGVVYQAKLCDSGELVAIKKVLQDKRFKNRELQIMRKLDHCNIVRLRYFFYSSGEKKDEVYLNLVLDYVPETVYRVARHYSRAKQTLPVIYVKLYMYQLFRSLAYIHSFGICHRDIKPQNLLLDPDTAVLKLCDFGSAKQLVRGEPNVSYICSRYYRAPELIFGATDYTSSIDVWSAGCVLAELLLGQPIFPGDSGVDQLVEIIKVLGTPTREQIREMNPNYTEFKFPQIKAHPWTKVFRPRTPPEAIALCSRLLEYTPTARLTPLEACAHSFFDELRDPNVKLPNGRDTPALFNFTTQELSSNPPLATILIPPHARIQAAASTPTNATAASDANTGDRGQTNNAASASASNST
# assayProcedure: concentration-response blocking of human GSK3B – biochemical, luminescence, cell-free homogeneous, retest, dose response (AID 434954)
measurementType: EC50

Use these answered entries as a reference point.
molecule	EC50
N#Cc1c(N)nc(-c2ccccc2)nc1-c1ccccc1	> 300 µM
COc1cccc(C(=O)CN2C=CC=CC2=CN=O)c1	> 300 µM
COc1cccc(CSc2nnc(-c3ccc(F)cc3)o2)c1	22.5 µM

Lab note: each molecule below needs its EC50 filled in.
1. CNC(=O)c1ccsc1NC(=O)C1CCN(S(=O)(=O)c2ccc(Cl)s2)CC1
2. COc1ccc(CNC(=O)CN(Cc2ccccc2)C(=O)CCC(=O)Nc2ccccn2)cc1
3. Cc1cc2c(=O)oc(-c3ccc(F)cc3)nc2s1
4. Cc1ccc(C=NNC(=O)COc2ccc(C)cc2[N+](=O)[O-])cc1
5. COc1cccc(C2C3=C(CC(C)(C)CC3=O)N=C(C)C2C#N)c1 (configuration not stated)
6. Cc1nc(Nc2ccccc2)sc1C(=O)c1ccc(F)cc1
7. CC(C)=CCc1c(O)ccc2c1OC(c1ccc(O)c(O)c1)CC2=O (configuration not stated)
8. CCCc1cc(=O)oc2cc(C)c(CN3CCCC3)c(O)c12

# output
1: > 300 µM; 2: 24.2 µM; 3: > 300 µM; 4: > 300 µM; 5: > 300 µM; 6: > 300 µM; 7: 4.58 µM; 8: > 300 µM

Lab note: each molecule below needs its EC50 filled in.
1. O=C(CSc1nnc(-c2ccncc2)n1-c1ccc(F)cc1)NC(=O)NCc1ccco1
2. O=C(CN(Cc1cccs1)C(=O)CCC(=O)Nc1ccccn1)NCc1ccccc1
3. CC(C)(C)Sc1ccc(CN=O)cc1[N+](=O)[O-]

# output
1: > 300 µM; 2: > 300 µM; 3: 23.6 µM

Lab note: each molecule below needs its EC50 filled in.
1. CCOC(=O)c1[nH]c(C)c(C(=O)NCc2ccc(OC)cc2)c1C
2. Fc1ccc(Nc2nc(-c3ccncc3)nc3ccccc23)cc1
3. COc1ccc(-c2cc(C(F)(F)F)nc(SCCC(=O)N3CCOCC3)n2)cc1
4. Cc1oc2c(CN(C)C)c(O)ccc2c(=O)c1-c1ccc2ccccc2n1
5. NS(=O)(=O)c1ccc(NC(=O)CN2C(=O)CCC2=O)cc1
6. CCOC(=O)c1cnc2ccc(OC)cc2c1NCCN1CCOCC1
7. CSc1nc(C)cc(-n2ccc(=O)[nH]c2=O)n1
8. COCCOC(=O)C1C(C)=Nc2ncnn2C1c1ccccc1 (configuration not stated)

# output
["> 300 µM", "> 300 µM", "> 300 µM", "> 300 µM", "> 300 µM", "> 300 µM", "25.8 µM", "> 300 µM"]
